Provenance of the data: patent US12662491B2

This listing pairs compounds with measured pIC50.
Molecular target: Zcchc11 enzyme (Homo sapiens)
Construct: made in house; host or cells: HEK293 cells (Zcchc11); E. coli Rosetta II (LIN28A)
Assay: TUTase assay (Zcchc11 assay, Lin28a-dependent polyuridylation of pre-let-7)
Type: biochemical
Conditions: Lin28a-dependent Zcchc11 (Z11) TUTase activity; read-out: Potency Lin28a-dep Z11 IC50
pIC50: −log10 of the molar value.

Solved cases below.
{"COMPOUND": "COc1ccc(Cl)c(OC[C@H]2C[C@@H]3C[C@@H]3N2c2cc3c(cc2Cl)c(=O)c(C(=O)O)cn3-c2ccnc(N)c2)n1 (racemic) [Compound 231]", "SYSTEM TESTED": "Zcchc11 enzyme (Homo sapiens)", "MEASUREMENT KIND": "pIC50", "MEASURED RESULT": "≥ 6.00"}
{"COMPOUND": "COCCN(C)C1CN(c2ccc(-n3cc(C(=O)O)c(=O)c4cc(F)c(N5CC(c6cccnc6)C[C@@H]5COc5ncccc5Cl)cc43)cn2)C1 (stereo partly shown) [Compound 326]", "SYSTEM TESTED": "Zcchc11 enzyme (Homo sapiens)", "MEASUREMENT KIND": "pIC50", "MEASURED RESULT": "≥ 6.00"}
{"COMPOUND": "CC1(n2cc(C(=O)O)c(=O)c3cc(Cl)c(N4CCC4COc4ccccn4)cc32)CC1 (stereo not shown) [Compound 108]", "SYSTEM TESTED": "Zcchc11 enzyme (Homo sapiens)", "MEASUREMENT KIND": "pIC50", "MEASURED RESULT": "4.30 to 5.00"}
{"COMPOUND": "Nc1ccc(-n2cc(C(=O)O)c(=O)c3cc(Cl)c(N4CCC[C@@H]4COc4ncccc4Cl)nc32)cn1 (racemic) [Compound 190]", "SYSTEM TESTED": "Zcchc11 enzyme (Homo sapiens)", "MEASUREMENT KIND": "pIC50", "MEASURED RESULT": "≥ 6.00"}
{"COMPOUND": "CCc1ccccc1-n1cc(C(=O)O)c(=O)c2cc(F)c(N3CCC[C@@H]3COc3ccccn3)cc21 [Compound 161]", "SYSTEM TESTED": "Zcchc11 enzyme (Homo sapiens)", "MEASUREMENT KIND": "pIC50", "MEASURED RESULT": "5.00 to 6.00"}

## Input What pIC50 value was documented for this compound, Cc1cccc(OC[C@H]2CCCN2c2cc3c(cc2F)c(=O)c(C(=O)O)cn3-c2ccccc2)n1 [Compound 92] ?
## Output ≥ 6.00

## Input What pIC50 value was documented for this compound, CN(C)C1CN(c2ccc(-n3cc(C(=O)O)c(=O)c4cc(Cl)c(N5CC(C6CC6)C[C@@H]5COc5ncccc5Cl)cc43)cn2)C1 (stereo partly shown) [Compound 349] ?
## Output ≥ 6.00

----------
Molecular target: Zcchc11 enzyme (Homo sapiens)
Construct: made in house; host or cells: HEK293 cells (Zcchc11); E. coli Rosetta II (LIN28A)
Test: TUTase assay (Zcchc11 assay, Lin28a-dependent polyuridylation of pre-let-7)
Type: biochemical
Conditions: Lin28a-dependent Zcchc11 (Z11) TUTase activity; read-out: Potency Lin28a-dep Z11 IC50
MEASUREMENT KIND: IC50

{"COMPOUND": "O=C(O)c1cn(-c2ccccc2CO)c2cc(N3CCC[C@@H]3COc3ccccn3)c(F)cc2c1=O", "IC50": "1 to 10 µM"}

## Input Query IC50 on Zcchc11 enzyme (Homo sapiens) for COc1ccc(Cl)c(OC[C@H]2C[C@H]3C[C@H]3N2c2cc3c(cc2F)c(=O)c(C(=O)O)cn3-c2ccc(N(C)C)nc2)n1
## Output ≤ 1 µM

## Input Query IC50 on Zcchc11 enzyme (Homo sapiens) for Cc1cc2c(=O)c(C(=O)O)cn(-c3ccc(N4CC(N(C)C)C4)nc3)c2cc1N1C(=O)CC1COc1ccccn1 (stereo not drawn)
## Output 10 to 50 µM

----------
This listing pairs compounds with measured pIC50.
Molecular target: Zcchc11 enzyme (Homo sapiens, UniProt Q5TAX3)
Construct: made in house; host or cells: HEK293 cells (Zcchc11); E. coli Rosetta II (LIN28A)
Sequence (Q5TAX3 212-1420): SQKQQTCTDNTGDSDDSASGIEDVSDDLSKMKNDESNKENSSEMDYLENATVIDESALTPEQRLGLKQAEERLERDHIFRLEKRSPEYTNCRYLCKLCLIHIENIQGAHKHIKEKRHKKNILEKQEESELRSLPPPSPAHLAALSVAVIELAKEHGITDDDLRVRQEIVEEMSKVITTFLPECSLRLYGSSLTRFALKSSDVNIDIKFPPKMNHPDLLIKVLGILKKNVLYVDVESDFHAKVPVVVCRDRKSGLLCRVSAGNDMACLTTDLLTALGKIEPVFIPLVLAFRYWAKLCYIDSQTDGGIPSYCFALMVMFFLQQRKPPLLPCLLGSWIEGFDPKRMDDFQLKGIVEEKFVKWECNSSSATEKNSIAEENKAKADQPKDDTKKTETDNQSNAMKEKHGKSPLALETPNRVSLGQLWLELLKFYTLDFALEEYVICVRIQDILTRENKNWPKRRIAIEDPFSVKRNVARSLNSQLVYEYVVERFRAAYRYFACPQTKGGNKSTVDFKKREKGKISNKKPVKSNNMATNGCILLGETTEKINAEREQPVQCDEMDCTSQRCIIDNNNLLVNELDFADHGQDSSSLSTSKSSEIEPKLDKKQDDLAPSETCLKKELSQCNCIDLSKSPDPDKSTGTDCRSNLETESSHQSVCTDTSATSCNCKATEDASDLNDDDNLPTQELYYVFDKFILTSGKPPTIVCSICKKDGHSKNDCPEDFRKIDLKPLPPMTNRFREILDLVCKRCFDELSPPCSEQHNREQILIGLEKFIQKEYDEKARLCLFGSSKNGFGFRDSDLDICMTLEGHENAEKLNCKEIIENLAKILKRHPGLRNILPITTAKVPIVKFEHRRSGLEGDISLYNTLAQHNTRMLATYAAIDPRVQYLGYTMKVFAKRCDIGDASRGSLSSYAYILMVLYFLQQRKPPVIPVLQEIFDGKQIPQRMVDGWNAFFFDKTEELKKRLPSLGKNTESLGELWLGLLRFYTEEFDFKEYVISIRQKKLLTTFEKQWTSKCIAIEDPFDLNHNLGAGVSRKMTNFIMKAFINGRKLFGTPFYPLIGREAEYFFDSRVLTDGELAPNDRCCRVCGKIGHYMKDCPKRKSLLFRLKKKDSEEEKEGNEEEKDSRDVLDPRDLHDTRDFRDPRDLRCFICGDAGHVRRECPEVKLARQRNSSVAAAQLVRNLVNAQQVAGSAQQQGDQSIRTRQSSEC
Test: TUTase assay (Zcchc11 assay, Lin28a-dependent polyuridylation of pre-let-7)
Assay type: biochemical
Conditions: Lin28a-dependent Zcchc11 (Z11) TUTase activity; read-out: Potency Lin28a-dep Z11 IC50
pIC50: −log10 of the molar value.

## Input Query pIC50 on Zcchc11 enzyme (Homo sapiens, UniProt Q5TAX3) for COc1ccc(F)c(OC[C@H]2C[C@H]3C[C@H]3N2c2cc3c(cc2Cl)c(=O)c(C(=O)O)cn3-c2ccnc(N)c2)n1
## Output ≥ 6.00

## Input Query pIC50 on Zcchc11 enzyme (Homo sapiens, UniProt Q5TAX3) for CN(C)C1CN(c2ccc(-n3cc(C(=O)O)c(=O)c4cc(Cl)c(N5CC(c6cn[nH]c6)C[C@@H]5COc5ncccc5Cl)cc43)cn2)C1 (some centres unmarked)
## Output ≥ 6.00

## Input Query pIC50 on Zcchc11 enzyme (Homo sapiens, UniProt Q5TAX3) for COCCOc1ccc(-n2cc(C(=O)O)c(=O)c3cc(F)c(N4CCC[C@@H]4COc4ncccc4C)cc32)cc1
## Output ≥ 6.00

----------
This listing pairs compounds with measured pIC50.
Biological target: Zcchc11 enzyme (Homo sapiens, UniProt Q5TAX3)
Construct: made in house; host or cells: HEK293 cells (Zcchc11); E. coli Rosetta II (LIN28A)
Test: TUTase assay (Zcchc11 assay, Lin28a-dependent polyuridylation of pre-let-7)
Format: biochemical
Conditions: Lin28a-dependent Zcchc11 (Z11) TUTase assay; read-out: Potency Lin28a-dep Z11 IC50
pIC50: −log10 of the molar value.

## Input What pIC50 value was documented for this compound, CN(C)C1CN(c2ccc(-n3cc(C(=O)O)c(=O)c4cc(Cl)c(N5CC(c6cccnc6)C[C@@H]5COc5ncccc5Cl)cc43)cn2)C1 (stereo partly shown) ?
## Output ≥ 6.00

----------
Target: Zcchc11 enzyme (Homo sapiens, UniProt Q5TAX3)
Construct: made in house; host or cells: HEK293 cells (Zcchc11); E. coli Rosetta II (LIN28A)
Experiment: TUTase assay (Zcchc11 assay, Lin28a-dependent polyuridylation of pre-let-7)
Assay type: biochemical
Details: Lin28a-dependent Zcchc11 (Z11) TUTase activity; read-out: Potency Lin28a-dep Z11 IC50
This listing pairs molecules with measured IC50.

Solved cases below.
{"MOLECULE": "CN(C)C1CN(c2ccc(-n3cc(C(=O)O)c(=O)c4cc(Cl)c(N5CCC[C@@H]5COc5ncccc5Cl)cc43)cn2)C1", "SYSTEM TESTED": "Zcchc11 enzyme (Homo sapiens, UniProt Q5TAX3)", "MEASURED RESULT": "≤ 1000 nM"}
{"MOLECULE": "CN(C)C1CN(c2ccc(-n3cc(C(=O)O)c(=O)c4cc(Cl)c(N5[C@@H](COc6nc(OC7CC7)ccc6Cl)C[C@H]6C[C@H]65)cc43)cn2)C1", "SYSTEM TESTED": "Zcchc11 enzyme (Homo sapiens, UniProt Q5TAX3)", "MEASURED RESULT": "≤ 1000 nM"}
{"MOLECULE": "Cc1cccnc1OC[C@H]1CCCN1c1cc2c(cc1F)c(=O)c(C(=O)O)cn2C1CC1", "SYSTEM TESTED": "Zcchc11 enzyme (Homo sapiens, UniProt Q5TAX3)", "MEASURED RESULT": "≤ 1000 nM"}
{"MOLECULE": "CN(C)C1CN(c2ccc(-n3cc(C(=O)O)c(=O)c4cc(Cl)c(N5CCC(C)(C)C5COc5nc(OC6CC6)ccc5Cl)cc43)cn2)C1 (centres unmarked)", "SYSTEM TESTED": "Zcchc11 enzyme (Homo sapiens, UniProt Q5TAX3)", "MEASURED RESULT": "≤ 1000 nM"}
{"MOLECULE": "COc1cccc(-n2cc(C(=O)O)c(=O)c3cc(F)c(N4CCC[C@@H]4COc4ccccn4)cc32)c1", "SYSTEM TESTED": "Zcchc11 enzyme (Homo sapiens, UniProt Q5TAX3)", "MEASURED RESULT": "≤ 1000 nM"}

## Input What IC50 value was documented for this molecule, O=C(O)c1cn(-c2ccc(O)cc2F)c2c(F)c(N3CCC[C@@H]3COc3ccccn3)c(F)cc2c1=O ?
## Output 1000 to 10000 nM

## Input What IC50 value was documented for this molecule, CN(C)C1CN(c2ccc(-n3cc(C(=O)O)c(=O)c4cc(Cl)c(N5CC(c6ncccn6)C[C@@H]5COc5ncccc5Cl)cc43)cn2)C1 (some centres unmarked) ?
## Output ≤ 1000 nM

## Input What IC50 value was documented for this molecule, O=C(O)c1cn(-c2ccccc2)c2c(F)c(N3CCC[C@H]3COc3ccccn3)c(F)cc2c1=O ?
## Output 10000 to 50000 nM

## Input What IC50 value was documented for this molecule, COc1cccnc1OC[C@H]1CCCN1c1cc2c(cc1F)c(=O)c(C(=O)O)cn2-c1ccccc1 ?
## Output ≤ 1000 nM

## Input What IC50 value was documented for this molecule, O=C(O)c1cn(-c2ccc(O)cc2F)c2c(F)c(N3CCC[C@H]3COc3ccccn3)c(F)cc2c1=O ?
## Output 10000 to 50000 nM

## Input What IC50 value was documented for this molecule, CN(C)C1CN(c2ccc(-n3cc(C(=O)O)c(=O)c4cc(Cl)c(N5CCC[C@@H]5COc5nc6nc[nH]c6cc5Cl)cc43)cn2)C1 ?
## Output ≤ 1000 nM

## Input What IC50 value was documented for this molecule, CN(C)C1CN(c2ccc(-n3cc(C(=O)O)c(=O)c4cc(Cl)c(N5CC6(CCC6)CC5COc5ncccc5Cl)cc43)cn2)C1 (centres unmarked) ?
## Output ≤ 1000 nM

## Input What IC50 value was documented for this molecule, COc1ccc(Cl)c(OCC2N(c3cc4c(cc3Cl)c(=O)c(C(=O)O)cn4-c3cnnc(N)c3)CCC2(C)C)n1 (centres unmarked) ?
## Output ≤ 1000 nM
